Method Description: AUC(0 to t) in mouse at 100 mg/kg, po
Assay type: ADME, organism-based
Conditions Used: in vivo
Measure Name: AUC(0-t) (ng·h/mL)

>>> experimental_result("C[C@H]1[C@H](OC(=O)CCC(=O)OCCCCOC(=O)c2cc(O)c3c(c2)C(=O)c2cccc(O)c2C3=O)O[C@@H]2O[C@@]3(C)CC[C@H]4[C@H](C)CC[C@@H]1[C@@]24OO3")
18200

====

Method Description: Tmax in mouse iv dosed mouse
Assay type: ADME, organism-based
Conditions Used: in vivo
Measure Name: Tmax (min)

>>> experimental_result("C[C@H]1[C@H](OC(=O)CCC(=O)OCCCCOC(=O)c2cc(O)c3c(c2)C(=O)c2cccc(O)c2C3=O)O[C@@H]2O[C@@]3(C)CC[C@H]4[C@H](C)CC[C@@H]1[C@@]24OO3")
10.2
